Target: T1, extracellular domain of activin receptor type IIB (ActRIIBecd), biotinylated (Homo sapiens (Human), UniProt Q13705 27-117, amino-biotinylated with amine-PEG3-Biotin)
T1 construct: immobilised on a streptavidin-coated sensor chip; also called biotinylated ActRIIBecd; extracellular domain of ActRIIB
T1 sequence: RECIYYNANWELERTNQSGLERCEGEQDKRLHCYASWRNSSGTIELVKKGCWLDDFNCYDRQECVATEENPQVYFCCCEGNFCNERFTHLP
Test: BIAcore SPR, biotinylated ActRIIBecd on chip; SD ±24.42 nM
pKd: −log10 of the molar value.

{"binder": "AQAKHKQYKRLKSSCKRHPLY [Clone No. 12 domain (ActRIIBecd-associated polypeptide)]", "pKd": 7.23}
